Taken from patent US20230374132A1.

Target: T1, human CD3E&G complex (Sino Biological Inc., CT041-H0305H) (human, UniProt P07766 23-126; P09693 23-116)
T1 construct: bought heterodimer; also called human CD3E&G antigen
T1 sequence (P07766 23-126, chain 1 of 2): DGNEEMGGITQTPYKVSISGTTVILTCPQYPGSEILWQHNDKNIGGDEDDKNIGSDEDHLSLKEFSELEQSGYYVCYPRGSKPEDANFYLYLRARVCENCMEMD
T1 sequence (P09693 23-116, chain 2 of 2): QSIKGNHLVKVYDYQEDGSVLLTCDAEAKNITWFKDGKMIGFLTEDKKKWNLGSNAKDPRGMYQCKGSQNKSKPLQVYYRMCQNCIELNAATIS
Assay: BLI, antibody on sensor
Mark Fulfilled only when Kd stays strictly below 4 nM. Values equal to the cut-off are Not fulfilled.

Previously resolved entries follow.
1. hzsp34.91 (antibody, human IgG1, lambda, L234A L235A, V domains shown, CDR mutant of hzsp34.24; IgG1 L234A L235A, lambda) VH: EVQLVESGGGLVQPGGSLKLSCAASGFTFNTYAMNWVRQASGKGLEWVGRIRSKYNNYATYYADSVKDRFTISRDDSKSTLYLQMNSLKTEDTAVYYCARHGNFGGSYVSWFAYWGQGTTVTVSS VL: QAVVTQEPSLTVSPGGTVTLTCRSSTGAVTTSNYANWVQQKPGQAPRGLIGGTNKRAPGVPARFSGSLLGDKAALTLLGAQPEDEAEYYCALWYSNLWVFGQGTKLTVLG    Not fulfilled
2. hzsp34.101 (antibody, human IgG1, lambda, L234A L235A, V domains shown, CDR mutant of hzsp34.24; IgG1 L234A L235A, lambda) VH: EVQLVESGGGLVQPGGSLKLSCAASGFTFNTYAMNWVRQASGKGLEWVGRIRSKYNNYATYYADSVKDRFTISRDDSKSTLYLQMNSLKTEDTAVYYCARHGNFGQSAASWFAYWGQGTTVTVSS VL: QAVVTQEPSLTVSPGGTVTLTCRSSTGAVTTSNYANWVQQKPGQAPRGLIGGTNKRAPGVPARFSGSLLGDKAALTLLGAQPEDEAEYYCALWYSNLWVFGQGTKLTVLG    Not fulfilled
3. hzsp34.111 (antibody, human IgG1, lambda, L234A L235A, V domains shown, CDR mutant of hzsp34.24; IgG1 L234A L235A, lambda) VH: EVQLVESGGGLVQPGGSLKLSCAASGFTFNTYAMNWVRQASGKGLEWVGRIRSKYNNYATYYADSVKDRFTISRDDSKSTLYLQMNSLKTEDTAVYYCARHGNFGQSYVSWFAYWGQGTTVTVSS VL: QAVVTQEPSLTVSPGGTVTLTCRSSTGAVGGSNYANWVQQKPGQAPRGLIGGTNKRAPGVPARFSGSLLGDKAALTLLGAQPEDEAEYYCALWYSNLWVFGQGTKLTVLG    Not fulfilled
4. hzsp34.80 (antibody, human IgG1, lambda, L234A L235A, V domains shown, CDR mutant of hzsp34.24; IgG1 L234A L235A, lambda) VH: EVQLVESGGGLVQPGGSLKLSCAASGFTFNTAAMNWVRQASGKGLEWVGRIRSKYNNYATYYADSVKDRFTISRDDSKSTLYLQMNSLKTEDTAVYYCARHGNFGQSYVSWFAYWGQGTTVTVSS VL: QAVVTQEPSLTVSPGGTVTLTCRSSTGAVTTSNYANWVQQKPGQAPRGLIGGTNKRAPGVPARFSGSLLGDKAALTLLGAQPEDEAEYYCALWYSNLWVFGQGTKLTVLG    Not fulfilled

Task: In plain terms, does hzsp34.83 (antibody, human IgG1, lambda, L234A L235A, V domains shown, CDR mutant of hzsp34.24; IgG1 L234A L235A, lambda) VH: EVQLVESGGGLVQPGGSLKLSCAASGFTFNTYAMNWVRQASGKGLEWVGRIRSKANNYATYYADSVKDRFTISRDDSKSTLYLQMNSLKTEDTAVYYCARHGNFGQSYVSWFAYWGQGTTVTVSS VL: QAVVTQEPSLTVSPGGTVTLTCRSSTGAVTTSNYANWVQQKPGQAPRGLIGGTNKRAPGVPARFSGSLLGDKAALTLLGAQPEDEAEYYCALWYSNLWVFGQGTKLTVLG come in under 4 nM for Kd?
Result: Fulfilled
